- System under test: rabbit lung ACE (Oryctolagus cuniculus, UniProt P12822)
- Construct: reagents from Sigma product 305-10) consisting of rabbit lung ACE; purchased Sigma Chemical Corporation, St Louis, Mo., USA 305-10; host or cells: rabbit lung (tissue-derived enzyme)
- Sequence (P12822 34-1310): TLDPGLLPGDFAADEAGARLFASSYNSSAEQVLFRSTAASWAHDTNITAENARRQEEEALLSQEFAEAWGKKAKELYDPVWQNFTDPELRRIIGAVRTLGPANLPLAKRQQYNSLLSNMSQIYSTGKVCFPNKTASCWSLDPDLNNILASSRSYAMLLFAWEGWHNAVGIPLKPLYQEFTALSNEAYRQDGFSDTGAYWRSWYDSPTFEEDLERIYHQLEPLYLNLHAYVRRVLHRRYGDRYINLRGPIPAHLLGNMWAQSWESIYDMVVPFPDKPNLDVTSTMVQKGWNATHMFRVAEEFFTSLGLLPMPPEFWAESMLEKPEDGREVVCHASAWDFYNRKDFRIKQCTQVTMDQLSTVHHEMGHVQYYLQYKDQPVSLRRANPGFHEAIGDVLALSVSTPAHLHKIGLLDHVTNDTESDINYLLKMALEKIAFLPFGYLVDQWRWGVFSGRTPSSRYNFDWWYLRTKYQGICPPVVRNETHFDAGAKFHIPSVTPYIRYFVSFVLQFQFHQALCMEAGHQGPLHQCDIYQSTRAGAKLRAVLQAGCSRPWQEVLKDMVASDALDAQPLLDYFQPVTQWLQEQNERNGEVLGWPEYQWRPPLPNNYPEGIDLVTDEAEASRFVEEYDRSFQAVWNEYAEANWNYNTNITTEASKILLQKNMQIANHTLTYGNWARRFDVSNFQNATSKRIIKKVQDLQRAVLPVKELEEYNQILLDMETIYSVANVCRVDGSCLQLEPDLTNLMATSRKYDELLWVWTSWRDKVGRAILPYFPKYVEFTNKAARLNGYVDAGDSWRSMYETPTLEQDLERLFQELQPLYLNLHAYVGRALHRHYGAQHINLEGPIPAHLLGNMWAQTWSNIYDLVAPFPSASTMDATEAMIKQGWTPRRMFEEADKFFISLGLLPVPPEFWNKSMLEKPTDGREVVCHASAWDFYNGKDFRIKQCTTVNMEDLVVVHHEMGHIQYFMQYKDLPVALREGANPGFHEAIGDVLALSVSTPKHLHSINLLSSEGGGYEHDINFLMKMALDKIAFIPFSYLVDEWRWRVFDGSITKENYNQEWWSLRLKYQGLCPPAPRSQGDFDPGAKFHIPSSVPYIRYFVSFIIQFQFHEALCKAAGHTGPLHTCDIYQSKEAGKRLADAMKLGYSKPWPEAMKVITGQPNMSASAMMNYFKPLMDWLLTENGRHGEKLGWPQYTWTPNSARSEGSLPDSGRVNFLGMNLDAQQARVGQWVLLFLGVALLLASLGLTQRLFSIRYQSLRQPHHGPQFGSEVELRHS
- Assay explanation: ACE-I activity using FAPGG as substrate (method of Cushman & Cheung)
- Assay type: biochemical
- Test conditions: purified peptide; colorimetric substrate FAPGG; read-out: Activity (IC50 in mg L^−1) (converted)
Ends that are not written are not given here.
Each record is given TRUE if its reported IC50 is strictly below 30 µM. Records at or above 30 µM are given FALSE.

In [3]: df
Out[3]:
                                  substance                         system_under_test  label_value
0        LDIQK [LDIQK, Leu-Asp-Ile-Gln-Lys]  rabbit lung ACE (Oryctolagus cuniculus, UniProt P12822)         TRUE
1  ILKEKH [ILKEKH, Ile-Leu-Lys-Glu-Lys-His]  rabbit lung ACE (Oryctolagus cuniculus, UniProt P12822)         TRUE
2  LHLPLP [LHLPLP, Leu-His-Leu-Pro-Leu-Pro]  rabbit lung ACE (Oryctolagus cuniculus, UniProt P12822)         TRUE
3  VTSTAV [VTSTAV, Val-Thr-Ser-Thr-Ala-Val]  rabbit lung ACE (Oryctolagus cuniculus, UniProt P12822)        FALSE
4        ALPMH [ALPMH, Ala-Leu-Pro-Met-His]  rabbit lung ACE (Oryctolagus cuniculus, UniProt P12822)         TRUE
5                       LVYPFPGPIPNSLPQNIPP  rabbit lung ACE (Oryctolagus cuniculus, UniProt P12822)         TRUE
